// data source = PubChem BioAssay (NCI)

Test system: RPMI-8226 leukemia
PROTOCOL: NCI tumour cell line growth inhibition, 48 h
ENDPOINT NAME: TGI

molecule=Oc1ccc2ccccc2c1C=NCCCN=Cc1c(O)ccc2ccccc12 endpoint_name=TGI value_measured="31.1 µM"

# query: TGI of entry CCN1C(=O)C/C(=C\C(C)=O)Nc2ccccc21
> 100 µM

Suppose we examine the molecule CCCCCC(CN1CCOCC1)C(=O)/C=C/c1ccccc1 (stereo not drawn) ; what TGI value has been reported?
9.03 µM

Fill blank: measured TGI of the molecule CCCCCCCCC[C@@H]1C[C@@H]2CCC3C(C(=O)OC)=C(C)NC(=N1)N32 (stereo partly drawn) is ____.
> 100 µM

Bench note: what TGI did CC(=O)N(C)OC(=O)CC(=O)c1ccccc1 show?
> 100 µM

What value of measured TGI is listed for COc1cc(Nc2cnc3cc(C(F)(F)F)ccc3n2)cc(OC)c1OC ?
> 100 µM

====

Tested on: SK-MEL-2 melanoma
PROTOCOL: NCI tumour cell line growth inhibition, 48 h
Listed here: items and their measured TGI.
The response must be a number in µM with no trailing unit.

Worked examples, 8 compounds total:
compound=CCn1c(=O)c(-c2ccn[nH]2)cc2c(C)nc(N)nc21 target_or_test_system="SK-MEL-2 melanoma" value_measured=9.58
compound="Cc1ccc(NC(c2ccccc2)c2ccc3cccnc3c2O)cc1 (configuration not stated)" target_or_test_system="SK-MEL-2 melanoma" value_measured=21
compound="COc1ccc(OC)c(C2CCc3nc4nc(N)nc(N)c4cc3C2)c1 (configuration not stated)" target_or_test_system="SK-MEL-2 melanoma" value_measured=4.35
compound=Cc1ccc(Nc2nc(NCCO)c3ccccc3n2)cc1C target_or_test_system="SK-MEL-2 melanoma" value_measured=24
compound="Cc1cc2c(cc1C)NC(=O)C(NC(=O)/C=C/c1ccccc1)C=N2 (configuration not stated)" target_or_test_system="SK-MEL-2 melanoma" value_measured=84.4
compound=COc1ccc(CN2C(=O)/C(=C\c3cc(OC)c(OC)c(OC)c3)c3cc(OC)ccc32)cc1 target_or_test_system="SK-MEL-2 melanoma" value_measured=4.01
compound=Nc1ccccc1C#CC#Cc1ccccc1N target_or_test_system="SK-MEL-2 melanoma" value_measured=51.7
compound=CCN(CC)c1ccc(/C=C(\C#N)c2nc(N)nc(N3N=C(C)CC3(C)C)n2)cc1 target_or_test_system="SK-MEL-2 melanoma" value_measured=34.1

Now, please, on to the next compound.
What value of TGI has been recorded for this entry: CCNc1nnc(CSc2nc(-c3ccccc3)c(-c3ccccc3)[nH]2)s1
41.9

====

// reported GI50 per item
Tested on: SN12C renal
PROTOCOL: NCI tumour cell line growth inhibition, 48 h

structure_smiles_string=Nc1c(C(=O)Nc2ccccc2)sc2nc3c(cc12)CCCCCC3 value_measured="1570 nM"
structure_smiles_string=CC(C)C[C@H](NC(=O)[C@H](Cc1ccccc1)n1ccc(N2CCCCC2)cc1=O)B(O)O value_measured="1500 nM"
structure_smiles_string=CN(C)CCNC(=O)c1ccc(Nc2nc3ccccc3c3occc23)cc1 value_measured="2500 nM"

Entry CCCCCCCCCCCCN1C(C)=CS/C1=C\C=C\c1scc(C)[n+]1CCCCCCCCCCCC has what GI50?
1650 nM

Entry Cc1ccc(Nc2nc(NCCO)c3ccccc3n2)cc1C : reported GI50 = ?
10300 nM
